- System: HCT116 cells
- experiment_description: alamarBlue cell viability assay, HCT116
- Type: cell-based
- condition_set: Homo sapiens, HCT-116, 72 h, KRas mutant, read-out: HCT116 IC50 ± SEM
measurement_name: IC50

compound=N=C(N)Nc1ccc(Oc2cccc(NC(=N)Nc3ccc(Cl)c(C(F)(F)F)c3)c2)cc1 measurement_name=IC50 result="9.96 µM"
compound="CNC(=O)c1cc(Oc2ccc(NC(=O)Nc3ccc(Cl)c(C(F)(F)F)c3)cc2)ccn1 [Sorafenib, reference compound]" measurement_name=IC50 result="6.79 µM"
compound=Cl.Cl.N=C(N)Nc1ccc(Oc2cccc(NC(=N)Nc3ccc(Cl)c(C(F)(F)F)c3)c2)cn1 measurement_name=IC50 result="7.29 µM"
compound=Cl.N=C(N)Nc1ccc(Oc2cccc(Nc3ccc(Cl)c(C(F)(F)F)c3)c2)cn1 measurement_name=IC50 result="4.59 µM"
compound=Cl.N=C(N)Nc1ccc(Oc2cccc(Nc3ccc(Cl)c(C(F)(F)F)c3)c2)cc1 measurement_name=IC50 result="15.9 µM"

* * *

- System: HKH-2 cells
- experiment_description: alamarBlue cell viability assay, HKH-2
- Format: cell-based
- condition_set: Homo sapiens, 72 h, mutated KRas disrupted, read-out: HKH-2 IC50 ± SEM
Documented IC50 across a set of compounds
measurement_name: IC50 (µM)

compound="CNC(=O)c1cc(Oc2ccc(NC(=O)Nc3ccc(Cl)c(C(F)(F)F)c3)cc2)ccn1 [Sorafenib, reference compound]" readout_number=4.43
compound=Cl.N=C(N)Nc1ccc(Oc2cccc(Nc3ccc(Cl)c(C(F)(F)F)c3)c2)cc1 readout_number=10.3
compound=N=C(N)Nc1ccc(Oc2cccc(NC(=N)Nc3ccc(Cl)c(C(F)(F)F)c3)c2)cc1 readout_number=19.2
compound=Cl.N=C(N)Nc1ccc(Oc2cccc(Nc3ccc(Cl)c(C(F)(F)F)c3)c2)cn1 readout_number=2.88
compound=Cl.Cl.N=C(N)Nc1ccc(Oc2cccc(NC(=N)Nc3ccc(Cl)c(C(F)(F)F)c3)c2)cn1 readout_number=8.09

* * *

- System: HL-60 cells
- experiment_description: alamarBlue cell viability assay, HL-60
- Assay type: cell-based
- condition_set: Homo sapiens, HL-60, 72 h, alamarBlue, 72 h; read-out: HL-60 IC50 ± SEM
- Procedure: Cell viability and proliferation assays were used to evaluate the in vitro cytotoxicity of all synthesised compounds in a variety of different cancer cell lines using the alamarBlue® viability assay and the results are presented in Table 1 and Table 2. The sensitivity of cancer cells to drugs can often be compromised by PIK3CA, Ras and BRAF mutations. […] Lastly, toxicity against MCF-10A, which is a non-tumorigenic epithelial cell line, was also assessed for one of the most promising compounds (4). […]
Hi! Could you tag entries with IC50 below 8 µM as T, and those at or above as F? Much appreciated.

molecule="NS(=O)(=O)Nc1ccc(Oc2cccc(Nc3ccc(Cl)c(C(F)(F)F)c3)c2)cc1 [Compound 75]" category=F
molecule="Cl.N=C(N)Nc1ccc(Oc2cccc(Nc3ccc(Cl)cc3)c2)cc1 [Compound 28]" category=T
molecule="N=C(N)Nc1cccc(Oc2ccc(N=C(N)Nc3ccc(Br)c(C(F)(F)F)c3)cc2)c1 [Compound 11]" category=F
molecule="N=C(N)Nc1ccc(Oc2cc(F)cc(Nc3ccc(Cl)c(C(F)(F)F)c3)c2)cc1 [Compound 36]" category=T
molecule="N=C(N)Oc1ccc(Oc2cccc(Nc3ccc(Cl)c(C(F)(F)F)c3)c2)cc1 [Compound 70]" category=T
molecule="Cl.N=C(N)Nc1ccc(Oc2cccc(Nc3cccc(S(F)(F)(F)(F)F)c3)c2)cc1 [Compound 30]" category=T
molecule="N=C(N)Nc1ccc(Oc2cccc(NC(=N)Nc3ccc(Br)cc3)c2)cn1 [Compound 51]" category=F
molecule="Cl.Cl.N=C(N)Nc1ccc(Oc2cccc(NC(=N)Nc3ccc(Br)c(C(F)(F)F)c3)c2)cn1 [Compound 52]" category=T
molecule="N=C(N)Nc1ccc(Oc2cccc(N=C(N)Nc3ccc(Br)cc3)c2)cc1 [Compound 8]" category=F
molecule="Cl.Cl.N=C(N)Nc1ccc(Oc2cccc(N=C(N)Nc3ccc(Br)c(C(F)(F)F)c3)c2)cc1 [Compound 9]" category=T
molecule="N=C(N)Nc1ccc(Oc2cccc(N=C(N)Nc3ccc(F)cc3)c2)cc1 [Compound 5]" category=F
molecule="N=C(N)Nc1cccc(Oc2ccc(N=C(N)Nc3ccc(I)cc3F)cc2)c1 [Compound 10]" category=F
molecule="N=C(N)Nc1ccc(Oc2cccc(NC(=N)Nc3ccc(F)c(F)c3)c2)cc1 [Compound 6]" category=F
molecule="N=C(N)Nc1ccc(Oc2cccc(NC(=N)Nc3ccc(I)cc3F)c2)cn1 [Compound 50]" category=F
molecule="Cl.Cl.N=C(N)Nc1ccc(Oc2cccc(NC(=N)Nc3ccc(Cl)c(C(F)(F)F)c3)c2)cn1 [Compound 2]" category=T
molecule="N=C(N)Nc1ccc(Oc2cccc(N=C(N)Nc3ccc(I)cc3F)c2)cc1 [Compound 7]" category=F
molecule="Cl.N=C(N)Nc1ccc(Oc2cccc(Nc3ccc(Cl)c(C(F)(F)F)c3)c2)cn1 [Compound 4]" category=T
molecule="Cl.N=C(N)Nc1ccc(Oc2cccc(Nc3cccc(C(F)(F)F)c3)c2)cc1 [Compound 29]" category=T
molecule="N=C(N)Nc1ccc(Oc2cccc(NC(=N)Nc3ccc(F)c(F)c3)c2)cn1 [Compound 49]" category=F

* * *

This section presents molecules with their documented melting point values.
Counter-ions that a name gives are not always drawn.
measurement_name: melting point

molecule=Cl.N=C(N)Nc1ccc(Oc2cccc(Nc3ccc(Cl)c(C(F)(F)F)c3)c2)cn1 result="89 to 91 °C"
molecule=Cl.N=C(N)Nc1ccc(Oc2cccc(Nc3ccc(Cl)cc3)c2)cc1 result="50 to 52 °C"
molecule=Cl.N=C(N)Nc1ccc(Oc2cccc(Nc3cccc(S(F)(F)(F)(F)F)c3)c2)cc1 result="104 to 106 °C"
molecule=Cl.N=C(N)Nc1ccc(Oc2cccc(Nc3ccc(Cl)c(C(F)(F)F)c3)c2)cc1 result="58 to 60 °C"
molecule=NS(=O)(=O)Nc1ccc(Oc2cccc(Nc3ccc(Cl)c(C(F)(F)F)c3)c2)cc1 result="124 to 126 °C"
molecule=Cl.N=C(N)Nc1ccc(Oc2cccc(Nc3cccc(C(F)(F)F)c3)c2)cc1 result="93 to 95 °C"
molecule="N=C(N)Nc1ccc(Oc2cccc(NC(=N)Nc3ccc(F)c(F)c3)c2)cc1 (as salt: hydrochloride)" result="158 to 160 °C"
molecule="N=C(N)Nc1ccc(Oc2cc(F)cc(Nc3ccc(Cl)c(C(F)(F)F)c3)c2)cc1 (as salt: hydrochloride)" result="92 to 94 °C"
molecule=Cl.Cl.N=C(N)Nc1ccc(Oc2cccc(NC(=N)Nc3ccc(Cl)c(C(F)(F)F)c3)c2)cn1 result="169 to 171 °C"
